# Tested on: cynomolgus CD19
# ASSAY_NAME: FACS binding to CHO cell line transfected with cynomolgus CD19
# Set-up: species or system cynomolgus monkey
# APPLIED_CONDITIONS: transfected CHO cynoCD19 cells, 10 to 0.01 μg/mL

MOLECULE	cross-reactivity with cynomolgus CD19
7F11: anti-CD19 antibody, VH SEQ ID NO: 6, VL SEQ ID NO: 8 (antibody, V domains shown) VH: EVQLVQSGAEVKKPGESLKISCKGSGYSFTSYWIGWVRQMPGKGLEWMGIIYPGDSDTRYSPSFQGQVTISADKSISTAYLQWSSLKASDTAMYYCARGVSGIYNLHGFDIWGQGTLVTVSS VL: DIQMTQSPSSLSASVGDRVTITCRASQSISSYLNWYQQKPGKAPKLLIYAASSLQSGVPSRFSGSGSGTDFTLTISSLQPEDFATYYCQQGMWDNPFTFGQGTKVEIK	slightly cross-reactive
5F5: anti-CD19 antibody, VH SEQ ID NO: 2, VL SEQ ID NO: 4 (antibody, V domains shown) VH: EVQLVQSGAEVKKPGESLKISCKGSGYSFTSYWIGWVRQMPGKGLEWMGIIYPGDSDTRYSPSFQGQVTISADKSISTAYLQWSSLKASDTAMYYCARGISGIYNLHGFDIWGQGTLVTVSS VL: DIQMTQSPSSLSASVGDRVTITCRASQSISSYLNWYQQKPGKAPKLLIYAASSLQSGVPSRFSGSGSGTDFTLTISSLQPEDFATYYCQQASLDSPLTFGQGTKVEIK	slightly cross-reactive
